recordedMetric: melting point

Answered examples (5):
{"columns": ["molecule", "melting point"],
 "data": [
  ["O=c1[nH]c(-c2ccccc2)no1", "184 to 186 °C"],
  ["Cc1cc(N)c2cccnc2c1C", "124 to 126 °C"],
  ["COC(=O)c1ccc(F)c(CBr)c1", "50 to 52 °C"],
  ["CC(=O)Cc1ccc(-c2ccccc2)cc1", "49 to 51 °C"],
  ["CC(C)(C)OC(=O)Nc1ccsc1Br", "69 to 71 °C"]
]}

So for COc1ccc(C(=O)Nc2nc(C)cs2)cc1N , the logged melting point turned out to be 164 to 166 °C

Entry under test: O=C(O)C1CCN(c2ccc3c(c2)OCCO3)C1=O (configuration not stated) . Its melting point was 122 to 124 °C

Value of measured melting point for the entry COc1ccc(Cl)cc1NC(=O)CCl : 101 to 103 °C

---

recordedMetric: melting point

Recorded melting point, per entry:
{"columns": ["compound", "melting point"],
 "data": [
  ["CCOC(=O)/C(C#N)=C/Nc1ccc(F)cc1F", "142 to 144 °C"],
  ["O=C(O)CCNC(=O)Nc1ccccc1", "173 to 175 °C"],
  ["Nc1ccc(Cc2nnc3ccccn23)cc1", "207 to 209 °C"],
  ["Cc1nccn1-c1ccc(C(F)(F)F)cc1N", "183 to 185 °C"],
  ["Cc1nn(CCO)c2nc(C3CC3)cc(C(=O)O)c12", "184 to 186 °C"],
  ["CC(C)(C)N1C(=O)CC(C(=O)O)C1c1ccc(Cl)c(F)c1 (stereo not drawn)", "249 to 251 °C"],
  ["Cc1ccc(S(=O)(=O)NC2CC2)cc1C(=O)O", "252 to 257 °C"],
  ["O=C(O)c1cc(S(=O)(=O)N2CCCCC2)ccc1Br", "230 to 232 °C"],
  ["O=c1[nH]c(S)nn1-c1ccccc1", "187 to 189 °C"],
  ["CC(=O)Nc1ccc(S(=O)(=O)NCCC(=O)O)cc1", "160 to 162 °C"]
]}

Documented melting point of CCCOc1ccc(CCC(=O)O)cc1 : 90 to 92 °C

# melting point (compound: Cc1cn2c(n1)CNCC2 ) is 100 to 102 °C

The reported value for Nc1ccc(F)c(NS(=O)(=O)Cc2ccccc2)c1 in terms of melting point is 172 to 174 °C

---

Reported melting point values for a set of compounds

{"columns": ["compound", "result"],
 "data": [
  ["CCN(CC)C1=NC(=O)C(CC(=O)Nc2cccc(C(=O)O)c2)S1 (stereo not drawn)", "236 to 238 °C"],
  ["Nc1c(C(=O)O)ccnc1Br", "224 to 226 °C"],
  ["COc1ccccc1-n1cc(S(=O)(=O)Cl)cn1", "68 to 70 °C"]
]}

Sample CNc1cc(-c2ccc(OC)cc2)[nH]n1 ; melting point observed: 122 to 124 °C

Just so you know, measured melting point for NCc1ccccc1CS(=O)(=O)N1CCOCC1 came out at 90 to 92 °C

---

Here, each record is paired with measured melting point data.

Consider the worked cases shown below.
{"columns": ["compound", "recordedMetric", "result"],
 "data": [
  ["Cc1ccc(SCCNC(=O)CCl)cc1", "melting point", "114 to 116 °C"],
  ["NS(=O)(=O)c1cc(Br)cnc1Cl", "melting point", "119 to 121 °C"],
  ["NC(=NO)c1ccccc1Cl", "melting point", "87 to 91 °C"],
  ["Cc1cc(C(=O)O)c2ccc(F)cc2n1", "melting point", "267 to 269 °C"],
  ["Cc1ccc(NC(=O)c2c(F)cccc2Cl)c(C(=O)O)c1", "melting point", "249 to 251 °C"]
]}

Lab note: Cc1oncc1C(=O)NC(C)C(=O)O (stereo not drawn) gave melting point of 159 to 161 °C

Measured melting point, NNc1ccc(C(F)(F)F)nn1 : 132 to 134 °C

GET /value?item= COc1cc(C=O)c(SC)cc1OC &field=melting point returns 111 to 113 °C

melting point measured on NC(=O)c1cc(C(=O)O)c[nH]1 = 344 to 346 °C

# compound Cc1ccc(Oc2ccc(N)cn2)cc1C ; its melting point = 56 to 58 °C

---

Readings of melting point for the listed molecules

Completed entries (count: 5):
{"columns": ["smiles", "melting point"],
 "data": [
  ["CN(C)C(=O)c1ccc(Cl)nn1", "137 to 139 °C"],
  ["O=C(O)C1(c2ccc(F)cc2)CCCCC1", "137 to 139 °C"],
  ["Fc1ccc(Oc2ccc(Cl)nn2)c(F)c1", "113 to 115 °C"],
  ["COc1ccc(C2(C(=O)O)CCOCC2)cc1", "167 to 169 °C"],
  ["COc1ccccc1C(=O)/C=C1\\NC(=O)CS1", "173 to 175 °C"]
]}

Sure, the documented melting point for O=C(Nc1cccc(Br)n1)c1ccccc1 is 84 to 86 °C

// field: melting point; key: Brc1nn2cc(-c3ccccc3)nc2s1 ; value = 186 to 188 °C

In plain terms, O=C1CC(=O)Nc2ccccc2N1 has a documented melting point of 383 to 385 °C

Short answer for COc1cc(OC)cc(N2CCCNCC2)c1 : melting point was 50 to 52 °C

Item: ClCc1cc(Cl)c2c(c1)OCCO2 | melting point: 59 to 61 °C

Item: COc1ccc(C=O)c(Cl)c1 | melting point: 60 to 62 °C

melting point reading for COc1ccc(NCc2ccc(N(C)C)cc2)cc1 : 102 to 104 °C

melting point in this record for O=C(CCl)Nc1ccccc1[N+](=O)[O-] : 91 to 93 °C

---

Measured melting point by item

Reference set, count: 5
{"columns": ["compound", "result"],
 "data": [
  ["O=C(O)c1ccc(CSc2ccccc2)cc1", "179 to 181 °C"],
  ["Sc1nc2cc(Br)cnc2[nH]1", "324 to 326 °C"],
  ["COCCCn1cc(C(=O)c2cc(F)ccc2O)cc(C#N)c1=O", "126 to 128 °C"],
  ["COC(=O)CCCN1C(=O)NC(C)(C)C1=O", "60 to 62 °C"],
  ["O=C(O)c1cc(S(=O)(=O)N2CCOCC2)ccc1O", "234 to 236 °C"]
]}

Memo: O=C(Nc1ccc(O)cc1)c1ccco1 , reported melting point: 218 to 220 °C

Measured melting point, O=C(O)C1CCCCC1c1nc2cc(Cl)ccc2[nH]1 (stereo not drawn) : 199 to 201 °C

Field melting point (entry N#Cc1ccccc1S(N)(=O)=O ) reads 306 to 308 °C

---

recordedMetric: melting point

Known results for compounds:
{"columns": ["compound", "melting point"],
 "data": [
  ["Cn1cnc2cc(C(=O)O)ccc21", "313 to 315 °C"],
  ["N#Cc1ccncc1C(=O)O", "175 to 177 °C"],
  ["CC1CNC(=Nc2ccc(C(C)C)cc2)S1 (centres undefined)", "109 to 111 °C"],
  ["NC(=O)COc1ccc(O)cc1", "154 to 156 °C"]
]}

For CN(CC(=O)N1CCOCC1)C(=O)CCl the compound record lists melting point as 75 to 77 °C

Input c1ccc(-c2c[nH]c(C3CCCNC3)n2)cc1 (centres undefined) . Output melting point: 93 to 95 °C

Quick note, melting point for Cc1[nH]c(-c2ccnc(Cl)c2)nc(=O)c1C landed at 253 to 255 °C

Lookup result for C=CCN1C(=O)C(=O)c2ccccc21 ; measured melting point: 108 to 110 °C

Measured melting point of Cc1cc(-c2noc(CCC(=O)O)n2)ccc1F : 124 to 126 °C

Record COc1cc2nc(C)oc(=O)c2cc1OC , field melting point: 187 to 189 °C

melting point reading for Cc1ccc(C(=O)CBr)cc1C : 63 to 65 °C

---

recordedMetric: melting point

Guide cases for melting point, answers given:
{"columns": ["molecule", "melting point"],
 "data": [
  ["Cn1ncc2c1CCCC2O (stereo not drawn)", "104 to 106 °C"],
  ["NCCN1C(=O)Cc2ccccc21", "88 to 90 °C"]
]}

melting point for Cn1cc(C=O)cn1 is 31 to 33 °C

// melting point value for Nc1c(NCC2CCCO2)c(=O)[nH]c(=O)n1Cc1ccccc1 (stereo not drawn) : 221 to 223 °C

Sample CN1C(=O)CC(CO)C1c1cccc(Cl)c1 (stereo not drawn) ; melting point observed: 101 to 103 °C

Value of measured melting point for the entry O=C(Cc1nc2ccccc2n1C(F)F)c1cccs1 : 123 to 125 °C

Consider Brc1ncc(-c2ccccc2)s1 . Its measured melting point is 55 to 57 °C
